target: Recombinant human CSF1R kinase (Homo sapiens (Human)); conditions: Z-LYTE Tyr 1 peptide substrate
Sequence (P07333 20-972): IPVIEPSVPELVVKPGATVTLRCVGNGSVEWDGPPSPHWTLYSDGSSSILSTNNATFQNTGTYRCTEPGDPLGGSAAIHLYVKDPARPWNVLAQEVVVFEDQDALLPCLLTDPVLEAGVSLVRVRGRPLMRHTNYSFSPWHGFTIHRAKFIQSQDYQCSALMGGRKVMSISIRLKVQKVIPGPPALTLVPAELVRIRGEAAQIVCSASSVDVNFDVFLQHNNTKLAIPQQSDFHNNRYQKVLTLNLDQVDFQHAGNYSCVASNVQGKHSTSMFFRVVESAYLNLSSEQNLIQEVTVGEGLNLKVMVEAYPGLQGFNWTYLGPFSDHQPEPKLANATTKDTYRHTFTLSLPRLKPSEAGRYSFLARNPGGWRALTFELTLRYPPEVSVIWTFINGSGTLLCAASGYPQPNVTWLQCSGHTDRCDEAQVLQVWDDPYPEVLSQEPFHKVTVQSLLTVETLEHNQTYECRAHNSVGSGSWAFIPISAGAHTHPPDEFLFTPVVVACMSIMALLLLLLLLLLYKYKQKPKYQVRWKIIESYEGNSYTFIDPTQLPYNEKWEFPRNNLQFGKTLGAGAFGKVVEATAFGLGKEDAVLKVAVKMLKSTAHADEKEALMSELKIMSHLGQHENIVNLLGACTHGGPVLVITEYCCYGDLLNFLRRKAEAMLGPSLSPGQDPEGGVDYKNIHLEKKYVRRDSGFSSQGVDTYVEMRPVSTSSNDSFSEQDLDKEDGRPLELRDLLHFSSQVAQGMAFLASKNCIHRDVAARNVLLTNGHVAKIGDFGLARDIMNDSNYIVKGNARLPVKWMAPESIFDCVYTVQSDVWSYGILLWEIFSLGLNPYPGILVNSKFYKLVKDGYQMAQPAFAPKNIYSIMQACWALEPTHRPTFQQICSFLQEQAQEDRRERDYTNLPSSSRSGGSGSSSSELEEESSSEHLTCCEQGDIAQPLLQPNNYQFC
measure.name: IC50 (nM)

{"columns": ["compound", "unit.symbol", "IC50"],
 "data": [
  ["CC(C)n1cc(Cl)cc(C(=O)Nc2ccc(Oc3ccnc(-c4cnn(C)c4)c3)cn2)c1=O [Compound 57]", "nM", 24]
]}

(I) Cn1cc(Nc2cc(Oc3ccc(NC(=O)c4cccn(C)c4=O)nc3)ccn2)cn1 [Compound 67]
(II) Cn1cc(-c2cc(Oc3ccc(NC(=O)c4cccn(C5COC5)c4=O)nc3)ccn2)cn1 [Compound 83]
Pick one: I or II . Which has the bigger IC50 number? // caller expects the label of the chosen entry I
(I: 33 nM, II: 9 nM)
